For each of the compounds below, state its pIC50.
Target: mouse TRPM3α2 (mTRPM3) ion channel (Mus musculus, UniProt J9SQF3)
Sequence (J9SQF3 1-1709 isoform J9SQF3-12): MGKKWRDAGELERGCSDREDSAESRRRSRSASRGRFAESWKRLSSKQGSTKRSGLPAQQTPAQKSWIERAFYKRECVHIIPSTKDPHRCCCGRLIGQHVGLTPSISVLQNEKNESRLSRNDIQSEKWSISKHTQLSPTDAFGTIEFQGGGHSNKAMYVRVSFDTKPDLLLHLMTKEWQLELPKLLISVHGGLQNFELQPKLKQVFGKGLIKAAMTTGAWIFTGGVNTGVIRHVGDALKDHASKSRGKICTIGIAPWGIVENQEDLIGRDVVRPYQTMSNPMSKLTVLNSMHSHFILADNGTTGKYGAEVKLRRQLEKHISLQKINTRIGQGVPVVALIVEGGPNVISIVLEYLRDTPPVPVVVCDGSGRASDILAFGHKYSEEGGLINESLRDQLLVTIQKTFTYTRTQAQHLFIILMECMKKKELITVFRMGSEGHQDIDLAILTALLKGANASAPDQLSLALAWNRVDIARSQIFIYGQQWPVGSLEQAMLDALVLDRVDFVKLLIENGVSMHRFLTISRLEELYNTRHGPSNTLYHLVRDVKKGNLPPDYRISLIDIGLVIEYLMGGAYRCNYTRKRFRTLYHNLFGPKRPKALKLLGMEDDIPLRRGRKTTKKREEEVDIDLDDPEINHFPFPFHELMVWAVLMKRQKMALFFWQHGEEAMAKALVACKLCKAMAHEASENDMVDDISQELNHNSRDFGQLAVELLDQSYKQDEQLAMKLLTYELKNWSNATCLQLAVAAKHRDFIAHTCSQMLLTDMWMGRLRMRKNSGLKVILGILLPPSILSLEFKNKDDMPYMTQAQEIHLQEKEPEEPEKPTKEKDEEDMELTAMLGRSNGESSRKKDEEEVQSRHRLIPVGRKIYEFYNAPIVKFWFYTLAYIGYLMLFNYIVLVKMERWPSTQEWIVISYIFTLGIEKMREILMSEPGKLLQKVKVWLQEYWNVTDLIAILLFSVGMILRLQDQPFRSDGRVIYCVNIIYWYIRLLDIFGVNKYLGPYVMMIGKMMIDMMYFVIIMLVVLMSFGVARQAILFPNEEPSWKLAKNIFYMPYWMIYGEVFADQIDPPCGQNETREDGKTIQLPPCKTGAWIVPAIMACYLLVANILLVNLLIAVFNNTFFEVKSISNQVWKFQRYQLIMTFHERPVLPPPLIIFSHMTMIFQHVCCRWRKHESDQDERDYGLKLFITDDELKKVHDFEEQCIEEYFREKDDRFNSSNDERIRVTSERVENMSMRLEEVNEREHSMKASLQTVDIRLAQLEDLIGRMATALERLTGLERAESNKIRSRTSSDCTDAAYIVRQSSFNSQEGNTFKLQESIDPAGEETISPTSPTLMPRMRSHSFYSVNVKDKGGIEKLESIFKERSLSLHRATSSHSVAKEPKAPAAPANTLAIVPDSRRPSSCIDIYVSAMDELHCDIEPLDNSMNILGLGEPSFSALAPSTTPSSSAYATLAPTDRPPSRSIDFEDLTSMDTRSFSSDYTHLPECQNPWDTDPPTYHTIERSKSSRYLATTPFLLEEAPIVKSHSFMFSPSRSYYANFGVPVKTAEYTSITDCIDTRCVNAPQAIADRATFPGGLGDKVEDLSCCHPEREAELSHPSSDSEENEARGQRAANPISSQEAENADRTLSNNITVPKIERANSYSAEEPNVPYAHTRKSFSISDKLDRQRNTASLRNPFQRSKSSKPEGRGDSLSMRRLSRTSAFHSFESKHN
Test: TRPM3 ion channel driven Ca2+ uptake, Fluo-4 AM assay, mTRPM3alpha2 overexpressing flip-in HEK293 cells stimulated with pregnenolone sulfate (50 μM)
Settings: mTRPM3 overexpressing HEK293 cells stimulated with pregnenolone sulfate (50 μM), activity ranges A, B, C
pIC50: −log10 of the molar value.

>  <compound>
Cn1nc2ccc(OCc3ccccc3)cc2c1C(=O)NC1CNCC1(F)F (single isomer, unassigned) [Cpd 002 - En2]

>  <pIC50>
4.70 to 6.00

$$$$

The following compounds each have a reported value; give each one's pIC50.
1. Cn1nc2ccc(OCc3cccnc3C(F)(F)F)cc2c1C(=O)NC1(CO)CCNC1=O (single isomer, unassigned) [Cpd 177 - En1]
2. Cn1nc2ccc(OCC3CC3)cc2c1C(=O)NC1(CO)CCNC1=O (single isomer, unassigned) [Cpd 161 - En2]
3. Cn1nc2ccc(OCc3ccccn3)cc2c1C(=O)NC1(CO)CC1C(F)F (single isomer, unassigned) [Cpd 237 - En2]
4. COCC(C)(CC(F)F)NC(=O)c1c2cc(OCc3ccccn3)ccc2nn1C (single isomer, unassigned) [Cpd 230 - En1]
5. Cn1nc2ccc(OCc3ccccn3)cc2c1C(=O)NC1(C(N)=O)CCOCC1

Reply:
["> 6.00", "< 4.70", "< 4.70", "< 4.70", "4.70 to 6.00"]
